- Test: Half life in monkey liver microsomes
- Format: ADME, Macaca mulatta, Microsome
- Condition Parameters: rhesus monkey
Parameter Measured: half-life

Name the reported half-life value associated with the compound COc1ncc(C(=O)N2CCN(C(=O)/C=C/c3ccc4c(c3)OC(F)(F)O4)CC2)cn1
> 3.11 h

---

- Test: Oral bioavailability in rat at 10 mg/kg measured upto 24 hrs
- Type: ADME, organism-based
- Condition Parameters: in vivo
Parameter Measured: bioavailability

Name the reported bioavailability value associated with the molecule COc1ncc(C(=O)N2CCN(C(=O)/C=C/c3ccc4c(c3)OC(F)(F)O4)CC2)cn1
> 100%

---

- Test: Apparent permeability across basolateral to apical side in human Caco-2 cells
- Format: ADME, cell-based
Parameter Measured: Papp B→A (×10⁻⁶ cm/s)
# output: bare number, implied unit ×10⁻⁶ cm/s

Name the reported Papp B→A value associated with the compound COc1ncc(C(=O)N2CCN(C(=O)/C=C/c3ccc4c(c3)OC(F)(F)O4)CC2)cn1
16
